B1: PTPRD (parent)
chain: ELDELLKEISRKRRSIRYGREVEL

Variants of: B1
Assay: protein stability index of a GFP-peptide fusion (GPS, HEK-293T) (PSI 1-6); higher = more stable;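 also: lentivirally expressed fusions sorted by FACS into six bins by GFP to DsRed ratio, PSI derived from sequencing read proportions per bin multiplied by bin number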
Details: c terminus: a fixed tail appended
Please provide measured protein stability index for the entries that follow.
Lab note: record just the number, no unit beside it.

Quick note, protein stability index for `R13E` landed at 3.07

Quick note, protein stability index for `L5G` landed at 3.96

Quick note, protein stability index for `R11Y` landed at 2.62

Quick note, protein stability index for `G19W` landed at 2.9

Quick note, protein stability index for `Y18G` landed at 2.51

Quick note, protein stability index for `V22M` landed at 2.85

Quick note, protein stability index for `K12M` landed at 2.11

Quick note, protein stability index for `V22F` landed at 2.22

Quick note, protein stability index for `R20M` landed at 2.02

Quick note, protein stability index for `D3C` landed at 1.73

Quick note, protein stability index for `D3F` landed at 2.12

Quick note, protein stability index for `R14I` landed at 1.99

Quick note, protein stability index for `S10Y` landed at 2.06

Quick note, protein stability index for `L2T` landed at 3.38

Quick note, protein stability index for `Y18H` landed at 2.33

Quick note, protein stability index for `E8V` landed at 1.7

Quick note, protein stability index for `D3G` landed at 1.67

Quick note, protein stability index for `R17F` landed at 1.63

Quick note, protein stability index for `L24D` landed at 2.33

Quick note, protein stability index for `L6P` landed at 4.08

Quick note, protein stability index for `R20F` landed at 1.64

Quick note, protein stability index for `D3Y` landed at 2.12

Quick note, protein stability index for `E8S` landed at 2.45

Quick note, protein stability index for `V22A` landed at 1.82

Quick note, protein stability index for `E21P` landed at 2.71

Quick note, protein stability index for `L5H` landed at 4.08

Quick note, protein stability index for `E8W` landed at 2.64

Quick note, protein stability index for `S15M` landed at 2.54

Quick note, protein stability index for `R13H` landed at 2.14

Quick note, protein stability index for `I9N` landed at 3.35

Quick note, protein stability index for `R11V` landed at 3.18

Quick note, protein stability index for `R11I` landed at 2.45

Quick note, protein stability index for `R20C` landed at 2.01

Quick note, protein stability index for `L6A` landed at 3.65

Quick note, protein stability index for `L5I` landed at 2.45

Quick note, protein stability index for `E8Y` landed at 1.88

Quick note, protein stability index for `S15R` landed at 2.22

Quick note, protein stability index for `V22K` landed at 2.34

Quick note, protein stability index for `R11L` landed at 3.04

Quick note, protein stability index for `R17N` landed at 2.75

Quick note, protein stability index for `Y18K` landed at 2.46

Quick note, protein stability index for `Y18L` landed at 2.59

Quick note, protein stability index for `K12V` landed at 2.23

Quick note, protein stability index for `L2Y` landed at 3.54

Quick note, protein stability index for `E23H` landed at 2.51

Quick note, protein stability index for `I9K` landed at 3.96
